Parameter pIC50: see the listing below.
molecular target: Elastase from human neutrophils (Homo sapiens, UniProt P08246); assay: Enzymatic assay, elastase; details: Elastase IC50
Sequence (P08246 30-267): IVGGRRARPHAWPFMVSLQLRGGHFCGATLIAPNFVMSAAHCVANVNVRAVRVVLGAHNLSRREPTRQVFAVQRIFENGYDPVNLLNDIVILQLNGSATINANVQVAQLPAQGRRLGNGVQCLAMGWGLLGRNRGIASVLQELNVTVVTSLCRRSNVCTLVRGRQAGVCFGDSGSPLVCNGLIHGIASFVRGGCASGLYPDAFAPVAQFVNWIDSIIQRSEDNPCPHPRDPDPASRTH
pIC50: −log10 of the molar value. Where a SMILES comes first, the peptide text is derived from it.

Example entries and their recorded answers appear below.
CCCC[C@@H]1NC(=O)[C@@H]2CCCN2C(=O)[C@@H]2CCCN2C(=O)[C@H](CC(=O)O)NC(=O)[C@H](CO)NC(=O)[C@H](CCCCN)NC(=O)[C@H]([C@@H](C)O)NC(=O)[C@@H]2CSSC[C@H](NC1=O)C(=O)N[C@@H](CO)C(=O)N1CCC[C@@H]1C(=O)N1CCC[C@H]1C(=O)N[C@@H](Cc1ccccc1)C(=O)N2 [Ex. 15] (HELM PEPTIDE1{F.C.T.K.S.D.P.P.[Nle].C.S.[dP].P}$PEPTIDE1,PEPTIDE1,2:R3-10:R3|PEPTIDE1,PEPTIDE1,1:R1-13:R2$$$V2.0) | < 4.00
CC[C@H](C)[C@@H]1NC(=O)[C@@H]2CCCN2C(=O)[C@@H]2CCCN2C(=O)[C@H](CC(=O)O)NC(=O)[C@H](CO)NC(=O)[C@H](CCCCN)NC(=O)[C@H]([C@@H](C)O)NC(=O)[C@@H]2CSSC[C@H](NC1=O)C(=O)N[C@@H](CO)C(=O)N[C@H](C)C(=O)N[C@@H](CC(=O)O)C(=O)N[C@@H](Cc1ccccc1)C(=O)N2 [Ex. 68] (HELM PEPTIDE1{F.C.T.K.S.D.P.P.I.C.S.[dA].D}$PEPTIDE1,PEPTIDE1,2:R3-10:R3|PEPTIDE1,PEPTIDE1,1:R1-13:R2$$$V2.0) | < 4.00

Please find the next compound below.
q: What pIC50 value was documented for this compound, CC[C@H](C)[C@@H]1NC(=O)[C@@H]2CCCN2C(=O)[C@@H]2CCCN2C(=O)[C@H](CC(=O)O)NC(=O)[C@H](CO)NC(=O)[C@H](CCCCN)NC(=O)[C@H]([C@@H](C)O)NC(=O)[C@@H]2CSSC[C@H](NC1=O)C(=O)N[C@@H](CC(N)=O)C(=O)N1CCC[C@@H]1C(=O)N1CCC[C@H]1C(=O)N[C@@H](Cc1ccc(N)cc1)C(=O)N2 [Ex. 31] (HELM PEPTIDE1{[Nc1ccc(C[C@H](N[*:1])C(=O)[*:2])cc1].C.T.K.S.D.P.P.I.C.N.[dP].P}$PEPTIDE1,PEPTIDE1,2:R3-10:R3|PEPTIDE1,PEPTIDE1,1:R1-13:R2$$$V2.0) ?
a: < 4.00

Reference source for all entries: patent US8658604B2
